Test system: Salmonella typhimurium
Assay overview: Antimutagenic activity against Salmonella typhimurium TA1535 assessed as inhibition of NaN3-induced mutation at 250 ug/plate preincubated for 30 mins followed by top agar addition and measured after 48 hrs in presence of liver S9 fraction by Ames test relative to control
Format: organism-based
Particulars: salmonella enterica subsp. enterica serovar typhimurium, s9, 48 h

Molecule: Cc1cccc(C)c1OCC(=O)NCC(O)c1ccccc1 (centres undefined)
Assayed system: Salmonella typhimurium
inhibition (INH): 35%
//
Molecule: Cc1cccc(C)c1OCC(=O)N[C@H](C)CO
Assayed system: Salmonella typhimurium
inhibition (INH): 47%
//
Molecule: CC[C@@H](CO)NC(=O)COc1c(C)cccc1C
Assayed system: Salmonella typhimurium
inhibition (INH): 19%
//
Molecule: CCC(O)CNC(=O)COc1c(C)cccc1C (centres undefined)
Assayed system: Salmonella typhimurium
inhibition (INH): 56%

====

Tested on: Salmonella typhimurium
Assay overview: Antimutagenic activity against Salmonella typhimurium TA100 assessed as inhibition of NaN3-induced mutation at 100 ug/plate preincubated for 30 mins followed by top agar addition and measured after 48 hrs in presence of liver S9 fraction by Ames test relative to control
Type: organism-based
Particulars: salmonella enterica subsp. enterica serovar typhimurium, s9, 48 h

Molecule: Cc1cccc(C)c1OCC(=O)NCC(O)c1ccccc1 (centres undefined)
Assayed system: Salmonella typhimurium
inhibition (INH) (%): 45
--
Molecule: Cc1cccc(C)c1OCC(=O)N[C@H](C)CO
Assayed system: Salmonella typhimurium
inhibition (INH) (%): 43
--
Molecule: CCC(O)CNC(=O)COc1c(C)cccc1C (centres undefined)
Assayed system: Salmonella typhimurium
inhibition (INH) (%): 26
--
Molecule: CC[C@@H](CO)NC(=O)COc1c(C)cccc1C
Assayed system: Salmonella typhimurium
inhibition (INH) (%): 34

====

Assay overview: Neurotoxicity in CF-1 mouse at 300 mg/kg, ip measured after 0.5 hrs by rotarod test
Assay type: toxicity, organism-based
Particulars: in vivo
Measurement name: Activity

Compound: Cc1cc(C)c(OCC(=O)NCC(O)c2ccccc2)c(C)c1 (stereo not given)
Result: Toxic
--
Compound: Cc1cccc(C)c1OCC(=O)NCC(C)O (stereo not given)
Result: Toxic
--
Compound: CNC(=O)C(C)NC(=O)COc1c(C)cccc1C (stereo not given)
Result: Toxic
--
Compound: CCC(O)CNC(=O)COc1c(C)cccc1C (stereo not given)
Result: Toxic
--
Compound: Cc1cccc(C)c1OCC(=O)NC(C)C(=O)O (stereo not given)
Result: Non-Toxic
--
Compound: CC[C@@H](CO)NC(=O)COc1c(C)cccc1C
Result: Toxic
--
Compound: Cc1cccc(C)c1OCC(=O)NCC(O)c1ccccc1 (stereo not given)
Result: Non-Toxic
--
Compound: Cc1cccc(C)c1OCC(=O)NC(C)CO (stereo not given)
Result: Toxic
--
Compound: Cc1cccc(C)c1OCC(=O)N[C@H]1CC[C@H](OC(=O)COc2c(C)cccc2C)CC1
Result: Non-Toxic
--
Compound: Cc1cccc(C)c1OCC(=O)N[C@@H](C)C(=O)O
Result: Non-Toxic

====

Test system: Salmonella typhimurium
Assay overview: Antimutagenic activity against Salmonella typhimurium TA1535 assessed as inhibition of NaN3-induced mutation at 500 ug/plate preincubated for 30 mins followed by top agar addition and measured after 48 hrs in presence of liver S9 fraction by Ames test relative to control
Type: organism-based
Particulars: salmonella enterica subsp. enterica serovar typhimurium, s9, 48 h
Measurement name: inhibition (INH)

Compound: CCC(O)CNC(=O)COc1c(C)cccc1C (centres undefined)
Measurement name: inhibition (INH)
Result: 27%
//
Compound: CC[C@@H](CO)NC(=O)COc1c(C)cccc1C
Measurement name: inhibition (INH)
Result: 24%
//
Compound: Cc1cccc(C)c1OCC(=O)N[C@H](C)CO
Measurement name: inhibition (INH)
Result: 31%
//
Compound: Cc1cccc(C)c1OCC(=O)NCC(O)c1ccccc1 (centres undefined)
Measurement name: inhibition (INH)
Result: 13%

====

Assay overview: Neurotoxicity in Sprague-Dawley rat at 30 mg/kg, po measured after 0.5 hrs by rotarod test
Format: toxicity, organism-based
Particulars: in vivo

Compound: Cc1cccc(C)c1OCC(=O)NC(C)CO (stereo not given)
Activity: Non-Toxic
--
Compound: CCC(O)CNC(=O)COc1c(C)cccc1C (stereo not given)
Activity: Non-Toxic
--
Compound: Cc1cccc(C)c1OCC(=O)NCC(C)O (stereo not given)
Activity: Non-Toxic
--
Compound: Cc1cccc(C)c1OCC(=O)N[C@H](C)CO
Activity: Non-Toxic
--
Compound: CNC(=O)C(C)NC(=O)COc1c(C)cccc1C (stereo not given)
Activity: Non-Toxic

====

Assay overview: Protection index, ratio of TD50 for neurotoxicity in ip dosed CF-1 mouse to ED50 for anticonvulsant activity in CF-1 mouse model of maximal electroshock-induced seizure
Assay type: toxicity, organism-based
Particulars: in vivo, read-out: Ratio TD50/ED50
Measurement name: selectivity ratio

Chemical structure: Cc1cccc(C)c1OCC(=O)N[C@H](C)CO
Measurement name: selectivity ratio
Quantitative readout: 1.43

====

System: Mus musculus
Assay overview: Anticonvulsant activity in CF-1 mouse model of subcutaneous pentylenetetrazole-induced seizure assessed as reduction in convulsions at 100 mg/kg, ip measured at 0.5 hrs post dose
Type: functional, organism-based
Activity calls are given as the source filed them. No cut-off for these calls is given here.

Molecule: Cc1cccc(C)c1OCC(=O)N[C@@H](C)C(=O)O
Assayed system: Mus musculus
Activity: inactive
//
Molecule: CCC(NC(=O)COc1c(C)cc(C)cc1C)C(N)=O (stereo not given)
Assayed system: Mus musculus
Activity: inactive
//
Molecule: CCC(CO)NC(=O)COc1c(C)cc(C)cc1C (stereo not given)
Assayed system: Mus musculus
Activity: inactive
//
Molecule: Cc1cccc(C)c1OCC(=O)NC(C)CO (stereo not given)
Assayed system: Mus musculus
Activity: inactive
//
Molecule: Cc1cccc(C)c1OCC(=O)N[C@H](C)CO
Assayed system: Mus musculus
Activity: inactive
//
Molecule: Cc1cc(C)c(OCC(=O)NCC(O)c2ccccc2)c(C)c1 (stereo not given)
Assayed system: Mus musculus
Activity: inactive
//
Molecule: Cc1cccc(C)c1OCC(=O)NCCc1ccccc1
Assayed system: Mus musculus
Activity: inactive
//
Molecule: Cc1cccc(C)c1OCC(=O)NCC(O)c1ccccc1 (stereo not given)
Assayed system: Mus musculus
Activity: inactive
//
Molecule: CNC(=O)C(C)NC(=O)COc1c(C)cccc1C (stereo not given)
Assayed system: Mus musculus
Activity: inactive
//
Molecule: Cc1cccc(C)c1OCC(=O)N[C@@H](C)CO
Assayed system: Mus musculus
Activity: inactive
//
Molecule: Cc1cccc(C)c1OCC(=O)N[C@H](C)C(N)=O
Assayed system: Mus musculus
Activity: inactive
//
Molecule: CC[C@@H](CO)NC(=O)COc1c(C)cccc1C
Assayed system: Mus musculus
Activity: inactive
//
Molecule: CCC(O)CNC(=O)COc1c(C)cccc1C (stereo not given)
Assayed system: Mus musculus
Activity: inactive
//
Molecule: Cc1cccc(C)c1OCC(=O)NCC(C)O (stereo not given)
Assayed system: Mus musculus
Activity: inactive
//
Molecule: Cc1cccc(C)c1OCC(=O)NC(C)C(=O)O (stereo not given)
Assayed system: Mus musculus
Activity: inactive

====

Tested on: Salmonella typhimurium
Assay overview: Antimutagenic activity against Salmonella typhimurium TA1535 assessed as inhibition of NaN3-induced mutation at 50 ug/plate preincubated for 30 mins followed by top agar addition and measured after 48 hrs in presence of liver S9 fraction by Ames test relative to control
Format: organism-based
Particulars: salmonella enterica subsp. enterica serovar typhimurium, s9, 48 h
Measurement name: inhibition (INH) (%)

Compound: CC[C@@H](CO)NC(=O)COc1c(C)cccc1C
Quantitative readout: 12

Compound: CCC(O)CNC(=O)COc1c(C)cccc1C (centres undefined)
Quantitative readout: 42

Compound: Cc1cccc(C)c1OCC(=O)NCC(O)c1ccccc1 (centres undefined)
Quantitative readout: 58

Compound: Cc1cccc(C)c1OCC(=O)N[C@H](C)CO
Quantitative readout: 29

====

In this section, each of the compounds is paired with its reported inhibition (INH).
System: Salmonella typhimurium
Assay overview: Antimutagenic activity against Salmonella typhimurium TA100 assessed as inhibition of NaN3-induced mutation at 250 ug/plate preincubated for 30 mins followed by top agar addition and measured after 48 hrs in presence of liver S9 fraction by Ames test relative to control
Type: organism-based
Particulars: salmonella enterica subsp. enterica serovar typhimurium, s9, 48 h

Compound: CC[C@@H](CO)NC(=O)COc1c(C)cccc1C
inhibition (INH) / %: 28
//
Compound: CCC(O)CNC(=O)COc1c(C)cccc1C (centres undefined)
inhibition (INH) / %: 11
//
Compound: Cc1cccc(C)c1OCC(=O)NCC(O)c1ccccc1 (centres undefined)
inhibition (INH) / %: 51
//
Compound: Cc1cccc(C)c1OCC(=O)N[C@H](C)CO
inhibition (INH) / %: 38

====

System: Mus musculus
Assay overview: Anticonvulsant activity in CF-1 mouse model of subcutaneous pentylenetetrazole-induced seizure assessed as reduction in convulsions at 30 mg/kg, ip measured at 0.5 hrs post dose
Format: functional, organism-based
Calls of active or inactive are those of the source. The rule behind the calls is not given here.
Measurement name: Activity

Compound: Cc1cccc(C)c1OCC(=O)NCC(O)c1ccccc1 (stereo not drawn)
Result: inactive
--
Compound: Cc1cccc(C)c1OCC(=O)NCCc1ccccc1
Result: inactive
--
Compound: Cc1cccc(C)c1OCC(=O)N[C@H](C)C(N)=O
Result: inactive
--
Compound: Cc1cc(C)c(OCC(=O)NCC(O)c2ccccc2)c(C)c1 (stereo not drawn)
Result: inactive
--
Compound: Cc1cccc(C)c1OCC(=O)N[C@@H](C)CO
Result: inactive
--
Compound: CCC(NC(=O)COc1c(C)cc(C)cc1C)C(N)=O (stereo not drawn)
Result: inactive
--
Compound: CCC(CO)NC(=O)COc1c(C)cc(C)cc1C (stereo not drawn)
Result: inactive
--
Compound: Cc1cccc(C)c1OCC(=O)N[C@@H](C)C(=O)O
Result: inactive
